TARGET_OF_ASSAY: MDMX (Homo sapiens, UniProt O15151)
Sequence (O15151 1-125): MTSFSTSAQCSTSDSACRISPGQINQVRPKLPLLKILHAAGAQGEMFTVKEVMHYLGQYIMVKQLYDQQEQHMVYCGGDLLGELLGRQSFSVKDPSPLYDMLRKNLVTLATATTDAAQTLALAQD
TEST: Competitive fluorescence polarization assay for MDMX
Assay type: binding
CONDITION: competitive FP assay, read-out: Ki (MDMX)
pKi: −log10 of the molar value. Where a SMILES comes first, the peptide text is derived from it. Bridges are numbered along the chain shown (N, C = ends). [ ]: non-standard residue; d: D form. R8 = C=CCCCCCC[C@@](C)(N)C(=O)O; Cba = N[C@@H](CC1CCC1)C(=O)O; S5 = C=CCCC[C@](C)(N)C(=O)O; Nle = CCCC[C@H](N)C(=O)O
RECORDED_ENDPOINT: pKi

COMPOUND	MEASURED
CC(=O)N[C@@H](C)C(=O)N[C@@H](CC(C)C)C(=O)N[C@H](C(=O)N[C@@H](Cc1ccccc1)C(=O)N[C@]1(C)CCCCCCC=CCCC[C@@](C)(C(=O)N[C@@H](CO)C(=O)N[C@@H](C)C(=O)N[C@@H](C)C(=O)N[C@@H](C)C(=O)N[C@H](C)C(N)=O)NC(=O)[C@H](CC2CCC2)NC(=O)[C@H](CCC(N)=O)NC(=O)[C@H](C)NC(=O)[C@H](Cc2c[nH]c3ccccc23)NC(=O)[C@H](Cc2ccc(O)cc2)NC(=O)[C@H](CCC(=O)O)NC1=O)[C@@H](C)O (single isomer, unassigned) [compound 357]	> 8.00
CCCC[C@H](NC(=O)[C@H](Cc1c[nH]c2ccccc12)NC(=O)[C@H](C)NC(=O)[C@]1(C)CCCC=CCCCCCC[C@@](C)(NC(=O)[C@H](Cc2ccccc2)NC(=O)[C@@H](NC(=O)[C@H](CCC(=O)O)NC(C)=O)[C@@H](C)O)C(=O)N[C@@H](C)C(=O)N[C@@H](Cc2ccc(O)cc2)C(=O)N[C@@H](Cc2c[nH]c3ccccc23)C(=O)N[C@@H](C)C(=O)N[C@@H](CCC(N)=O)C(=O)N[C@@H](CC2CCC2)C(=O)N1)C(=O)N[C@@H](C)C(N)=O [compound 240] (Ac-ETF[R8]AYWAQ[Cba][S5]AW[Nle]A-NH2; staple 4-11)	7.00 to 8.00
